Let's look at some molecules and their measured GLC.
species: Rattus norvegicus; test: Open TG-GATES - Regimen: Single; format: toxicity, organism-based, Sprague-Dawley; design: regimen Single, gender Male, age 6 weeks; conditions: in vivo, po, 100 mg/kg, 6 h, tissue Plasma, route gavage, dose level High
Kindly answer with a numeric value in mg/dL, unit omitted.

Illustrative cases are given below, each with its answer.
smiles_text | endpoint_value
CN(C)CCN(Cc1cccs1)c1ccccn1 | 170.2
CC1=C(/C=C/C(C)=C/C=C/C(C)=C/CO)C(C)(C)CCC1 | 190.4
CN(C)CCCN1c2ccccc2CCc2ccc(Cl)cc21 | 187.4

Now look at this one.
*Q* Looking for the measured GLC of CN(C)CCCN1c2ccccc2CCc2ccccc21 , can you help?
*A* 182

###

organism: Rattus norvegicus; experiment: Open TG-GATES - Regimen: Single; assay type: toxicity, organism-based, Sprague-Dawley; design: regimen Single, gender Male, age 6 weeks; details: in vivo, po, 30 mg/kg, 9 h, tissue Plasma, route gavage, dose level Middle
PL reference
Write the number in mg/dL without appending the unit.

compound | value_kind | endpoint_value
CC1=C(/C=C/C(C)=C/C=C/C(C)=C/CO)C(C)(C)CCC1 [RETINOL] | PL | 136
CN(C)CCN(Cc1cccs1)c1ccccn1 | PL | 131
CN(C)CCCN1c2ccccc2CCc2ccc(Cl)cc21 [CLOMIPRAMINE] | PL | 143

*Q* Would you mind telling me what PL value was observed for CN(C)CCCN1c2ccccc2CCc2ccccc21 [IMIPRAMINE] ?
*A* 131.2

###

organism: Rattus norvegicus; assay: Open TG-GATES - Regimen: Daily Repeat; type: toxicity, organism-based, Sprague-Dawley; design: regimen Daily Repeat, gender Male, age 6 weeks; settings: in vivo, po, 300 mg/kg, […], route gavage, dose level Middle, time 14 day
value_kind: TERMINAL_BW (g)
# unit: g | format: bare number

Examples with their reported TERMINAL_BW follow.
compound | TERMINAL_BW / g
CCOC(=O)CCC(=O)O[C@H]1[C@H](O[C@@H]2[C@@H](C)[C@H](O[C@H]3C[C@@](C)(OC)[C@@H](O)[C@H](C)O3)[C@@H](C)C(=O)O[C@H](CC)[C@@](C)(O)[C@H](O)[C@@H](C)C(=O)[C@H](C)C[C@@]2(C)O)O[C@H](C)C[C@@H]1N(C)C [ERYTHROMYCIN ETHYLSUCCINATE] | 321.9
NC(N)=Nc1nc(CSCCC(N)=NS(N)(=O)=O)cs1 | 316.2
COc1ccc2[nH]c([S+]([O-])Cc3ncc(C)c(OC)c3C)nc2c1 (stereo not given) | 314.9
CCOc1ccc(NC(=O)CC(C)O)cc1 (stereo not given) | 360.7

*Q* Could you share which TERMINAL_BW value was measured for COC1=CC(=O)C[C@@H](C)[C@]12Oc1c(Cl)c(OC)cc(OC)c1C2=O ?
*A* 309.7

###

species: Rattus norvegicus; assay: Open TG-GATES - Regimen: Daily Repeat; format: toxicity, organism-based, Sprague-Dawley; design: regimen Daily Repeat, gender Male, age 6 weeks; conditions: in vivo, po, 300 mg/kg, […], tissue Blood, route gavage, dose level Middle, time 7 day
value_kind: MCHC (%)
Entry rule: numbers only, all in %.

Below: 3 compounds and their reported MCHC.
compound | endpoint_value
COc1ccc2[nH]c([S+]([O-])Cc3ncc(C)c(OC)c3C)nc2c1 (stereo not given) | 33.9
CCOC(=O)CCC(=O)O[C@H]1[C@H](O[C@@H]2[C@@H](C)[C@H](O[C@H]3C[C@@](C)(OC)[C@@H](O)[C@H](C)O3)[C@@H](C)C(=O)O[C@H](CC)[C@@](C)(O)[C@H](O)[C@@H](C)C(=O)[C@H](C)C[C@@]2(C)O)O[C@H](C)C[C@@H]1N(C)C [ERYTHROMYCIN ETHYLSUCCINATE] | 33.6
NC(N)=Nc1nc(CSCCC(N)=NS(N)(=O)=O)cs1 | 35.8

*Q* Given the compound CCOc1ccc(NC(=O)CC(C)O)cc1 (stereo not given) , what is its reported MCHC?
*A* 33.7

*Q* Returns the measured MCHC for the input compound. Input: COC1=CC(=O)C[C@@H](C)[C@]12Oc1c(Cl)c(OC)cc(OC)c1C2=O
*A* 33.7

###

organism: Rattus norvegicus; experiment: Open TG-GATES - Regimen: Daily Repeat; assay type: toxicity, organism-based, Sprague-Dawley; design: regimen Daily Repeat, gender Male, age 6 weeks; conditions: in vivo, po, 0 mg/kg, […], tissue Blood, route gavage, dose level Control, time 7 day
Catalogue of compounds with associated Lym
Number only, in %; omit the unit.

The following compounds have reported results that may help.
compound | endpoint_value
CCCNC(=O)NS(=O)(=O)c1ccc(Cl)cc1 [CHLORPROPAMIDE] | 76.2
CN(C)CCN(Cc1cccs1)c1ccccn1 | 80.2
COC1=CC(=O)C[C@@H](C)[C@]12Oc1c(Cl)c(OC)cc(OC)c1C2=O [GRISEOFULVIN] | 78

Could you now look at the following compound, please?
*Q* Suppose we examine the compound CN(C)CCCN1c2ccccc2CCc2ccccc21 [IMIPRAMINE] ; what Lym value has been reported?
*A* 77.4

###

organism: Rattus norvegicus; assay: Open TG-GATES - Regimen: Daily Repeat; assay type: toxicity, organism-based, Sprague-Dawley; design: regimen Daily Repeat, gender Male, age 6 weeks; settings: in vivo, po, 10 mg/kg, […], tissue Blood, route gavage, dose level Low, time 28 day
Catalogue of MCHC readings, one per entry.
Please reply with the bare figure in % and do not write the unit itself.

compound | MCHC (%)
CN(C)CCN(Cc1cccs1)c1ccccn1 | 34.5

*Q* Tell me the measured MCHC of CC(C)OC(=O)C(C)(C)Oc1ccc(C(=O)c2ccc(Cl)cc2)cc1 [FENOFIBRATE] , please.
*A* 33.7

*Q* Name the reported MCHC value associated with the compound CN(C)CCCN1c2ccccc2CCc2ccccc21 [IMIPRAMINE]
*A* 34

*Q* I have this compound here, CC1=C(/C=C/C(C)=C/C=C/C(C)=C/CO)C(C)(C)CCC1 [RETINOL] , and I need its recorded MCHC.
*A* 36.2

###

organism: Rattus norvegicus; test: Open TG-GATES - Regimen: Single; format: toxicity, organism-based, Sprague-Dawley; set-up: regimen Single, gender Male, age 6 weeks; conditions: in vivo, po, 0 mg/kg, 6 h, tissue Plasma, route gavage, dose level Control
# Met = A/G below 1 (exclusive); Not met = A/G at/above 1

Past entries and their recorded results:
compound | cat
NNC(=O)c1ccncc1 | Not met
COC1=CC(=O)C[C@@H](C)[C@]12Oc1c(Cl)c(OC)cc(OC)c1C2=O | Not met
Cc1ccc(C)c(OCCCC(C)(C)C(=O)O)c1 | Met
CCOC(=O)CCC(=O)O[C@H]1[C@H](O[C@@H]2[C@@H](C)[C@H](O[C@H]3C[C@@](C)(OC)[C@@H](O)[C@H](C)O3)[C@@H](C)C(=O)O[C@H](CC)[C@@](C)(O)[C@H](O)[C@@H](C)C(=O)[C@H](C)C[C@@]2(C)O)O[C@H](C)C[C@@H]1N(C)C [ERYTHROMYCIN ETHYLSUCCINATE] | Not met

*Q* In the record for CN(C)CCN(Cc1cccs1)c1ccccn1 , is A/G less than 1?
*A* Not met

*Q* Lab log: compare recorded A/G with 1; is it strictly lower for NC(N)=Nc1nc(CSCCC(N)=NS(N)(=O)=O)cs1 ?
*A* Not met

*Q* Confirm or reject: A/G of CCOc1ccc(NC(=O)CC(C)O)cc1 (centres undefined) lies strictly below 1
*A* Met

*Q* Consider CC1=C(/C=C/C(C)=C/C=C/C(C)=C/CO)C(C)(C)CCC1 . Does its A/G lie strictly below 1?
*A* Not met

*Q* Would you kindly verify if A/G of CCCNC(=O)NS(=O)(=O)c1ccc(Cl)cc1 [CHLORPROPAMIDE] is strictly less than 1?
*A* Met

###

species: Rattus norvegicus; assay: Open TG-GATES - Regimen: Single; assay type: toxicity, organism-based, Sprague-Dawley; set-up: regimen Single, gender Male, age 6 weeks; details: in vivo, po, 1000 mg/kg, 24 h, tissue Kidney, route gavage, dose level High
value_kind: KIDNEY_L (g)
# output: bare number, implied unit g

Recorded KIDNEY_L, per entry:
molecule | KIDNEY_L (g)
CCOC(=O)CCC(=O)O[C@H]1[C@H](O[C@@H]2[C@@H](C)[C@H](O[C@H]3C[C@@](C)(OC)[C@@H](O)[C@H](C)O3)[C@@H](C)C(=O)O[C@H](CC)[C@@](C)(O)[C@H](O)[C@@H](C)C(=O)[C@H](C)C[C@@]2(C)O)O[C@H](C)C[C@@H]1N(C)C [ERYTHROMYCIN ETHYLSUCCINATE] | 1
COC1=CC(=O)C[C@@H](C)[C@]12Oc1c(Cl)c(OC)cc(OC)c1C2=O | 1
NC(N)=Nc1nc(CSCCC(N)=NS(N)(=O)=O)cs1 | 1
COc1ccc2[nH]c([S+]([O-])Cc3ncc(C)c(OC)c3C)nc2c1 (stereo not given) | 1

Now look at this one.
*Q* Sample CC(C)OC(=O)C(C)(C)Oc1ccc(C(=O)c2ccc(Cl)cc2)cc1 [FENOFIBRATE] — what was its KIDNEY_L?
*A* 0.8
